Numbers sourced from BindingDB's records for doi:10.1124/jpet.106.102897.

molecular target: Histamine H1 receptor (Cavia porcellus, UniProt P31389)
Sequence (P31389 whole entry): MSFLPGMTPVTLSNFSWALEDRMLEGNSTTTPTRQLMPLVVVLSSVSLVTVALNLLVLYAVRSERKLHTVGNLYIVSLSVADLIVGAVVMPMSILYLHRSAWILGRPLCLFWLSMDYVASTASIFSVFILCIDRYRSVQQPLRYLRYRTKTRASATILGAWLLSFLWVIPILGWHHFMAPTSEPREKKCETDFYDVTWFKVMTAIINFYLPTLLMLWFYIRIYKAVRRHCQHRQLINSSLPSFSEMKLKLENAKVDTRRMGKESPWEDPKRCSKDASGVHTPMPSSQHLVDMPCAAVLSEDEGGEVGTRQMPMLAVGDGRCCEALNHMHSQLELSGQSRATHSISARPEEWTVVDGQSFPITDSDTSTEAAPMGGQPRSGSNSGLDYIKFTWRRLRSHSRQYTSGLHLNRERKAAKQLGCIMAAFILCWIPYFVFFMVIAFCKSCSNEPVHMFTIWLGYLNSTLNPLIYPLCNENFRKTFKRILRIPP
Provide the reported Ki of each item.
Give bare numbers, in µM.

>>> result_value("NC(=NCCCc1cnc[nH]1)NC(=O)CC1CCCCC1")
4.7

From here, focus on the item given below.
Answer with Ki of N=C(NCCCc1c[nH]cn1)NC(=O)CCCc1ccccc1 measured for Histamine H1 receptor (Cavia porcellus, UniProt P31389). 2.2
